# TARGET UNDER TEST: Ghrelin receptor (Homo sapiens, UniProt Q92847)
# Sequence (Q92847 whole entry): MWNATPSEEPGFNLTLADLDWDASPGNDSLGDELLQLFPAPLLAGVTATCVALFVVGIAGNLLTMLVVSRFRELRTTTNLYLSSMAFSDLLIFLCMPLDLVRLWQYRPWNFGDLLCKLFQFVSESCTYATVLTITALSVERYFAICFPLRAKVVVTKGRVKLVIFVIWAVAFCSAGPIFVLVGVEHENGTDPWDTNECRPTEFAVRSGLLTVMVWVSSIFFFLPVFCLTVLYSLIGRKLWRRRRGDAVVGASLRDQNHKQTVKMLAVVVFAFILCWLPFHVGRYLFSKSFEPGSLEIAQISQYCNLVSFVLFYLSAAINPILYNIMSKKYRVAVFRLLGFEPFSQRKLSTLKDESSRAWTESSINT
# PROCEDURE SUMMARY: Receptor Selection and Amplification Technology (R-SAT) assay
# Assay type: cell-based
# Set-up: expressed in transfected cells; host or cells: NIH3T3
# ASSAY CONTEXT: negative logarithm of ligand concentration causing 50% inhibition of constitutive receptor response; transfected NIH3T3 cells; '—' not defined (nd used separately); read-out: RSAT pIC50 (converted)
Labelling field: enter condition met if recorded IC50 is less than 400 nM. Enter condition not met if it equals or exceeds that cut-off.

| MOLECULE | CLASS NAME |
| --- | --- |
| CC(=O)c1cn(CCCNC2Cc3ccccc3C2)c2c(Cl)cccc12 | condition not met |
| CC(=O)c1cn(CCCN2CCC(c3nc4ccccc4s3)CC2)c2ccccc12 [drawing 466] | condition met |
| CCC(=O)c1cn(CCCN2CCC(C(=O)c3ccccc3)CC2)c2ccccc12 | condition not met |
| CCCCC(=O)c1cn(CCCN2CCC(c3ccccc3OC)CC2)c2ccc(OC)cc12 | condition met |
| COc1ccc2c(C(C)=O)cn(CCCN3C4CCC3CC(OC3=CC=C(Cl)CC3)C4)c2c1 (stereo not drawn) | condition not met |
| CCCCC1CCN(CCCn2cc(C(C)=O)c3cccc(Br)c32)CC1 | condition met |
| CC(=O)c1cn(CCCN2C3CCC2CC(Oc2ccccc2Cl)C3)c2ncccc12 (stereo not drawn) | condition met |
| CCCCC[C@H]1C[C@H]2CC[C@@H](C1)N2CCCn1cc(C(=O)NCC(C)C)c2cccc(OC)c21 | condition met |
| CCc1cccc2c(C(C)=O)cn(CCCN3C4CCC3CC(CCc3ccc(Cl)cc3)C4)c12 (stereo not drawn) | condition met |
| COC(=O)c1cn(CCCN2CCC(Oc3ccc(F)cc3)CC2)c2ccccc12 | condition not met |
| O=C(c1cn(CCCN2CCCN(Cc3ccc(F)cc3)CC2)c2ncccc12)C(F)(F)F | condition met |
| CCCCC[C@H]1C[C@H]2CC[C@@H](C1)N2CCCn1cc(C(C)=O)c2cccc(C)c21 | condition met |
| CC(=O)c1cn(CCCN2CCC(c3nc(-c4cccnc4)no3)CC2)c2ncccc12 | condition not met |
| COc1ccc2c(c1)c(C(C)=O)cn2CCCN1CCC(Oc2ccc(Cl)cc2)CC1 | condition not met |
| COc1cccc2c(C(C)=O)cn(CCCN3CCCN(Cc4ccc(F)cc4)CC3)c12 | condition met |
| COc1ccc2c(c1)c(C(C)=O)cn2CCCN1CCC(Oc2ccc(F)cc2)CC1 | condition not met |
